Source: ChEMBL document CHEMBL4382296

Experiment: Selectivity index, ratio of IC50 for mouse J774 cells to EC50 for chloroquine-resistant Plasmodium falciparum K1 infected in human erythrocytes
Assay type: toxicity, cell-based
Conditions: read-out: Ratio IC50/EC50
Where a SMILES comes first, the peptide text is derived from it. [ ]: non-standard residue; d: D form. The star is where a group is joined. Trt = c1ccc(C(c2ccccc2)(c2ccccc2)*)cc1; Sar = CNCC(=O)O; tBu = CC(C)(C)*
measuredEndpoint: selectivity ratio

Known results for compounds:
compound	selectivity ratio
C[C@@H](OC(C)(C)C)[C@@H]1NC(=O)CNC(=O)[C@H](CSC(c2ccccc2)(c2ccccc2)c2ccccc2)NC(=O)CNC(=O)[C@H](CSC(c2ccccc2)(c2ccccc2)c2ccccc2)NC(=O)CN(C)C1=O (cyclo(C(Trt)GC(Trt)GT(tBu)[Sar]))	> 12500
CN1CC(=O)N[C@@H](CSC(c2ccccc2)(c2ccccc2)c2ccccc2)C(=O)N(C)CC(=O)N[C@@H](CSC(c2ccccc2)(c2ccccc2)c2ccccc2)C(=O)N(C)CC(=O)N[C@@H](CCC(=O)O)C1=O (cyclo(C(Trt)[Sar]C(Trt)[Sar]E[Sar]))	500000

Take each entry in turn and give its selectivity ratio.
1. C[C@@H](OC(C)(C)C)[C@@H]1NC(=O)CN(C)C(=O)[C@H](CSC(c2ccccc2)(c2ccccc2)c2ccccc2)NC(=O)CN(C)C(=O)[C@H](CSC(c2ccccc2)(c2ccccc2)c2ccccc2)NC(=O)CN(C)C1=O (cyclo(C(Trt)[Sar]C(Trt)[Sar]T(tBu)[Sar]))
2. CN1CC(=O)N[C@@H](CSC(c2ccccc2)(c2ccccc2)c2ccccc2)C(=O)N[C@@H](Cc2ccccc2)C(=O)N[C@@H](COC(C)(C)C)C(=O)N(C)CC(=O)N[C@@H](CSC(c2ccccc2)(c2ccccc2)c2ccccc2)C1=O (cyclo(C(Trt)FS(tBu)[Sar]C(Trt)[Sar]))
3. CN1CC(=O)N[C@@H](CSC(c2ccccc2)(c2ccccc2)c2ccccc2)C(=O)N(C)CC(=O)N[C@@H](CSC(c2ccccc2)(c2ccccc2)c2ccccc2)C(=O)N(C)CC(=O)N[C@@H](COC(C)(C)C)C1=O (cyclo(C(Trt)[Sar]C(Trt)[Sar]S(tBu)[Sar]))

Result:
> 2.5e+06
> 11000
> 770000

----------
Assay: Solubility of the compound in pH 7.4 phosphate buffered saline after 2 hrs by UV-HPLC analysis
Assay type: physicochemical
Where a SMILES comes first, the peptide text is derived from it. [ ]: non-standard residue; d: D form. The star is where a group is joined. Trt = c1ccc(C(c2ccccc2)(c2ccccc2)*)cc1; Sar = CNCC(=O)O; tBu = CC(C)(C)*
Class Criterion met: solubility at 2 h at least 0.7 µM. Class Criterion not met: solubility at 2 h below 0.7 µM.

Reference set, count: 5
compound	categoryLabel
C[C@@H](OC(C)(C)C)[C@@H]1NC(=O)CN(C)C(=O)[C@H](CSC(c2ccccc2)(c2ccccc2)c2ccccc2)NC(=O)CN(C)C(=O)[C@H](CSC(c2ccccc2)(c2ccccc2)c2ccccc2)NC(=O)CN(C)C1=O (cyclo(C(Trt)[Sar]C(Trt)[Sar]T(tBu)[Sar]))	Criterion not met
C[C@@H](OC(C)(C)C)[C@@H]1NC(=O)CNC(=O)[C@H](CSC(c2ccccc2)(c2ccccc2)c2ccccc2)NC(=O)CNC(=O)[C@H](CSC(c2ccccc2)(c2ccccc2)c2ccccc2)NC(=O)CN(C)C1=O (cyclo(C(Trt)GC(Trt)GT(tBu)[Sar]))	Criterion met
CN1CC(=O)N[C@@H](CSC(c2ccccc2)(c2ccccc2)c2ccccc2)C(=O)N(C)CC(=O)N[C@@H](CSC(c2ccccc2)(c2ccccc2)c2ccccc2)C(=O)N(C)CC(=O)N[C@@H](COC(C)(C)C)C1=O (cyclo(C(Trt)[Sar]C(Trt)[Sar]S(tBu)[Sar]))	Criterion not met
CN1CC(=O)N[C@@H](CSC(c2ccccc2)(c2ccccc2)c2ccccc2)C(=O)N[C@@H](CSC(c2ccccc2)(c2ccccc2)c2ccccc2)C(=O)N(C)CC(=O)N[C@@H](COC(C)(C)C)C1=O (cyclo(C(Trt)C(Trt)[Sar]S(tBu)[Sar]))	Criterion not met
C[C@@H](OC(C)(C)C)[C@@H]1NC(=O)CN(C)C(=O)[C@H](CSC(c2ccccc2)(c2ccccc2)c2ccccc2)NC(=O)CNC(=O)[C@H](CSC(c2ccccc2)(c2ccccc2)c2ccccc2)NC(=O)CN(C)C1=O (cyclo(C(Trt)GC(Trt)[Sar]T(tBu)[Sar]))	Criterion not met

Here's the next entry for you.
Q: Entry CN1CC(=O)N[C@@H](CSC(c2ccccc2)(c2ccccc2)c2ccccc2)C(=O)N(C)CC(=O)N[C@@H](CSC(c2ccccc2)(c2ccccc2)c2ccccc2)C(=O)N(C)CC(=O)N[C@@H](CCC(=O)O)C1=O (cyclo(C(Trt)[Sar]C(Trt)[Sar]E[Sar])) : is its solubility at 2 h no less than 0.7 µM?
Result: Criterion met
